Biological target: UniProtKB P08183
Assay: Reversal of Pgp-mediated DOX resistance in human SW620/AD300 cells assessed as potentiation of DOX-induced cytotoxicity by measuring inhibition of cell proliferation at 1 uM incubated for 48 hrs by SRB assay (reference value: 5.3 +/- 3 %)
Type: cell-based
quantityKind: inhibition at 1 µM (%)
Hi! Could you send only the number? It should be in %, unit omitted.

Need inhibition at 1 µM, item COc1cc2c(cc1OC)CN(S(=O)(=O)/C=C/c1c(-c3ccccc3)n(C)c3ccccc13)CC2
25.4

Need inhibition at 1 µM, item COc1cc2c(cc1OC)CN(CCc1ccc(NC(=O)/C=C/c3c(-c4ccccc4)oc4ccccc4c3=O)cc1)CC2
55.2

Need inhibition at 1 µM, item COc1ccc(CCN(C)CCCC(C#N)(c2ccc(OC)c(OC)c2)C(C)C)cc1OC (centres undefined)
26.1

Need inhibition at 1 µM, item COc1cc2c(cc1OC)CN(CCc1ccc(NC(=O)/C=C/c3ccc(Oc4ccc(-c5cccnc5)cc4)nc3)cc1)CC2
62.6

----------
Biological target: ATP-dependent translocase ABCB1 (Homo sapiens)
Assay: Reversal of Pgp-mediated DOX resistance in human SW620/AD300 cells assessed as potentiation of DOX-induced cytotoxicity by measuring inhibition of cell proliferation at 1 uM incubated for 48 hrs by SRB assay (reference value: 5.3 +/- 3 %)
Format: cell-based
quantityKind: inhibition at 1 µM
A bare number is not enough; add the unit after it.

Need inhibition at 1 µM, item COc1ccc(C(=O)NN2CC(c3c(-c4ccccc4)n(C)c4ncccc34)=CC2=O)cc1OC
14%

----------
Molecular target: ATP-dependent translocase ABCB1 (Homo sapiens)
Assay: Reversal of Pgp-mediated DOX resistance in human SW620/AD300 cells assessed as potentiation of DOX-induced cytotoxicity by measuring inhibition of cell proliferation at 1 uM incubated for 48 hrs by SRB assay (reference value: 5.3 +/- 3 %)
Format: cell-based
Let's look at some molecules and their measured inhibition at 1 µM.
Hi! Could you send only the number? It should be in %, unit omitted.

Examples with their reported inhibition at 1 µM follow.
>  <molecule>
COc1cc2c(cc1OC)CN(C(=O)/C=C/c1c3n(c4ccccc14)C(c1cccs1)Oc1ccccc1-3)CC2 (centres undefined)

>  <inhibition at 1 µM / %>
44.3

$$$$
>  <molecule>
COc1cc2c(cc1OC)CN(CCc1ccc(NC(=O)c3ccc(Oc4ccc(-c5ccccn5)cc4)nc3)cc1)CC2

>  <inhibition at 1 µM / %>
36.1

$$$$
>  <molecule>
COc1cc2c(cc1OC)CN(CCc1ccc(NC(=O)/C=C/c3ccc(Oc4cc(O)c(-c5ccccn5)c(O)c4)nc3)cc1)CC2

>  <inhibition at 1 µM / %>
56.3

$$$$

Consider the record given below.
Need inhibition at 1 µM, item COc1cc2c(cc1OC)CN(C(=O)/C=C/c1c3n(c4ncccc14)CCc1ccccc1-3)CC2
45.4

----------
Molecular target: ATP-dependent translocase ABCB1 (Homo sapiens, UniProt P08183)
Sequence (P08183 whole entry): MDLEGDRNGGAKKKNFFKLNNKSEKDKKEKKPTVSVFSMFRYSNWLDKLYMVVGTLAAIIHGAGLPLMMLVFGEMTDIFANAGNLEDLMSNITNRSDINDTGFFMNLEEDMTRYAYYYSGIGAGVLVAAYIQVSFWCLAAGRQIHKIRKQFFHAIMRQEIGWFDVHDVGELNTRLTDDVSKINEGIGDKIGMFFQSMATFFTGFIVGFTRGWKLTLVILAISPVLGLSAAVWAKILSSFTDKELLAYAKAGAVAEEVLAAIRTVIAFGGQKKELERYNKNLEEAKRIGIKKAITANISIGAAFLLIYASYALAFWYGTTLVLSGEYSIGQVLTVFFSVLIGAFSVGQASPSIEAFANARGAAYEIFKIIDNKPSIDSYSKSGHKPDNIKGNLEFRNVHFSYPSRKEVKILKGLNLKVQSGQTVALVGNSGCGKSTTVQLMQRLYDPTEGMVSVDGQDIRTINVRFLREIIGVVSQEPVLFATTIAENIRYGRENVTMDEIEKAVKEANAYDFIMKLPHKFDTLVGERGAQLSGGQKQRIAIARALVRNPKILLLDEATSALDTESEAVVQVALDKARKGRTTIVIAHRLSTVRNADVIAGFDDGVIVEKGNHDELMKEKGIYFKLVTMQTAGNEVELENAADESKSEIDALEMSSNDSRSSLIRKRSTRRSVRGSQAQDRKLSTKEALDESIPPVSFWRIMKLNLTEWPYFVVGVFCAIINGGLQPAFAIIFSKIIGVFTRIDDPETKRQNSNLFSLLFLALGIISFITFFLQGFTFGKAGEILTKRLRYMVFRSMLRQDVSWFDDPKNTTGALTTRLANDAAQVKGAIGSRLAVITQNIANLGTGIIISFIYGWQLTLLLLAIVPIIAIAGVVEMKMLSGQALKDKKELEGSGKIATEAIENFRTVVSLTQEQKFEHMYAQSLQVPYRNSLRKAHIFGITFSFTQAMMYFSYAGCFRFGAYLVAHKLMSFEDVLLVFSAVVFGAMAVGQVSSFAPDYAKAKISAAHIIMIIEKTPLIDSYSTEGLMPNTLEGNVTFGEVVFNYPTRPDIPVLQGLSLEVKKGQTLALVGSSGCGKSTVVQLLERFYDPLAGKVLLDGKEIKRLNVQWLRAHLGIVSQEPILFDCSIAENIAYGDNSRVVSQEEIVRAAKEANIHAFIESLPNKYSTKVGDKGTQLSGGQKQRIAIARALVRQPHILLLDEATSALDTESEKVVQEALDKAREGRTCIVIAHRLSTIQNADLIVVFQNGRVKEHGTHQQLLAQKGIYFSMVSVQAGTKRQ
Assay: Reversal of Pgp-mediated DOX resistance in human SW620/AD300 cells assessed as potentiation of DOX-induced cytotoxicity by measuring inhibition of cell proliferation at 1 uM incubated for 48 hrs by SRB assay (reference value: 5.3 +/- 3 %)
Assay type: cell-based
Let's look at some molecules and their measured inhibition at 1 µM.
A bare number is not enough; add the unit after it.

Examples with their reported inhibition at 1 µM follow.
>  <molecule>
COc1cc2c(cc1OC)CN(C(=O)/C=C/c1c3n(c4ccccc14)C(C1CCCCC1)Oc1ccccc1-3)CC2 (stereo not drawn)

>  <quantityKind>
inhibition at 1 µM

>  <recordedValue>
40.1%

$$$$
>  <molecule>
COc1cc2c(cc1OC)CN(CCc1ccc(NC(=O)/C=C/c3ccc(Oc4ccc(-c5ccccn5)c(Cl)c4)nc3)cc1)CC2

>  <quantityKind>
inhibition at 1 µM

>  <recordedValue>
60.3%

$$$$
>  <molecule>
COc1cc2c(cc1OC)CN(CCc1ccc(NC(=O)C3CC3c3ccc(Oc4ccc(-c5ccccn5)cc4)nc3)cc1)CC2 (stereo not drawn)

>  <quantityKind>
inhibition at 1 µM

>  <recordedValue>
59%

$$$$
>  <molecule>
COc1cc2c(cc1OC)CN(CCc1ccc(NC(=O)C(O)c3c(-c4ccccc4)n(C)c4ccccc34)cc1)CC2 (stereo not drawn)

>  <quantityKind>
inhibition at 1 µM

>  <recordedValue>
55.3%

$$$$

Need inhibition at 1 µM, item COc1cc2c(cc1OC)CN(C(=O)/C=C/c1nc(-c3ccccn3)n(C)c1-c1ccccc1)CC2
28.2%

Need inhibition at 1 µM, item COc1cc2c(cc1OC)CN(C(=O)/C(F)=C/c1c(-c3ccccc3)n(C)c3ncccc13)CC2
12.2%

Need inhibition at 1 µM, item COc1cc2c(cc1OC)CN(CCc1ccc(NC(=O)/C=C/c3ccc(Oc4ccc(-c5ccccn5)cc4I)nc3)cc1)CC2
59.2%

Need inhibition at 1 µM, item COc1cc2c(cc1OC)CN(CCc1ccc(NC(=O)/C=C/c3ccc(Oc4ccc(-c5ccccn5)cc4C)nc3)cc1)CC2
55.1%

----------
Target: ATP-dependent translocase ABCB1 (Homo sapiens, UniProt P08183)
Test: Reversal of Pgp-mediated DOX resistance in human SW620/AD300 cells assessed as potentiation of DOX-induced cytotoxicity by measuring inhibition of cell proliferation at 1 uM incubated for 48 hrs by SRB assay (reference value: 5.3 +/- 3 %)
Format: cell-based
quantityKind: inhibition at 1 µM (%)
Hi! Could you send only the number? It should be in %, unit omitted.

Examples with their reported inhibition at 1 µM follow.
>  <smilesStr>
COc1cc2c(cc1OC)CN(CCc1ccc(NC(=O)/C=C/c3ccc(Oc4c(I)cc(-c5ccccn5)cc4I)nc3)cc1)CC2

>  <inhibition at 1 µM, %>
53.2

$$$$
>  <smilesStr>
COc1cc2c(cc1OC)CN(CCc1ccc(NC(=O)/C=C/c3ccc(Oc4ccc(-c5ccccn5)c(O)c4)nc3)cc1)CC2

>  <inhibition at 1 µM, %>
56.4

$$$$
>  <smilesStr>
COc1cc2c(cc1OC)CN(CCc1ccc(NC(=O)/C=C/c3ccc(Oc4ccc(-c5ccccn5)c(C)c4)nc3)cc1)CC2

>  <inhibition at 1 µM, %>
58.2

$$$$

Need inhibition at 1 µM, item COc1cc2c(cc1OC)CN(C(=O)CCc1c(-c3ccccc3)n(C)c3ncccc13)CC2
17.7

----------
Molecular target: ATP-dependent translocase ABCB1 (Homo sapiens)
Test: Reversal of Pgp-mediated DOX resistance in human SW620/AD300 cells assessed as potentiation of DOX-induced cytotoxicity by measuring inhibition of cell proliferation at 1 uM incubated for 48 hrs by SRB assay (reference value: 5.3 +/- 3 %)
Assay type: cell-based
quantityKind: inhibition at 1 µM (%)
Hi! Could you send only the number? It should be in %, unit omitted.

Test system ATP-dependent translocase ABCB1 (Homo sapiens); read-out inhibition at 1 µM; what value for COc1cc2c(cc1OC)CN(C(=O)/C=C/c1c3n(c4ncccc14)Cc1ccccc1-3)CC2 ?
22.9

Test system ATP-dependent translocase ABCB1 (Homo sapiens); read-out inhibition at 1 µM; what value for COc1cc2c(cc1OC)CN(CCc1ccc(NC(=O)/C=C/c3cccc(Oc4ccc(-c5ccccn5)cc4)n3)cc1)CC2 ?
60.2

Test system ATP-dependent translocase ABCB1 (Homo sapiens); read-out inhibition at 1 µM; what value for COc1cc2c(cc1OC)CN(C(=O)/C=C/c1c(-c3ccccc3)nc3ccccn13)CC2 ?
37.5

Test system ATP-dependent translocase ABCB1 (Homo sapiens); read-out inhibition at 1 µM; what value for COc1ccc(C(=O)NNC(=O)/C=C/c2c(-c3ccccc3)n(C)c3ncccc23)cc1OC ?
10.9

----------
Let's look at some compounds and their measured inhibition at 48 h, 10 µM.
Assay: Cytotoxicity against human SW620/AD300 cells assessed as cell growth inhibition at 10 uM incubated for 48 hrs by SRB assay relative to control
Type: cell-based
Conditions: read-out: GI

Examples with their reported inhibition at 48 h, 10 µM follow.
>  <compound>
COc1cc2c(cc1OC)CN(CCc1ccc(NC(=O)/C=C/c3cc(-c4ccccn4)cc(C)c3Oc3ccccn3)cc1)CC2

>  <inhibition at 48 h, 10 µM>
17%

$$$$
>  <compound>
COc1cc2c(cc1OC)CN(CCc1ccc(NC(=O)/C=C/c3ccc(Oc4ccc(-c5cccnc5)cc4)nc3)cc1)CC2

>  <inhibition at 48 h, 10 µM>
13.9%

$$$$
>  <compound>
COc1cc2c(cc1OC)CN(CCc1ccc(NC(=O)C(c3c(-c4ccccc4)n(C)c4ccccc34)N3CCOCC3)cc1)CC2 (stereo unspecified)

>  <inhibition at 48 h, 10 µM>
42%

$$$$
>  <compound>
COc1cc2c(cc1OC)CN(CCc1ccc(NC(=O)/C=C/c3ccc(Oc4ccc(-c5ccccn5)c(Cl)c4)nc3)cc1)CC2

>  <inhibition at 48 h, 10 µM>
9.7%

$$$$
>  <compound>
COc1cc2c(cc1OC)CN(CCc1ccc(NC(=O)/C=C/c3ccc(Oc4ccc(-c5ccccn5)c(C)c4)nc3)cc1)CC2

>  <inhibition at 48 h, 10 µM>
17.1%

$$$$

Consider the record given below.
Need inhibition at 48 h, 10 µM, item COc1cc2c(cc1OC)CN(CCc1ccc(NC(=O)/C=C/c3ccc(Oc4ccc(-c5ccccn5)c(C#N)c4)nc3)cc1)CC2
13.9%
